- Test system: THP1
- PROCEDURE_SUMMARY: Leukemia cell growth inhibition evaluation (WST-8)
- Assay type: cell-based
- MEASUREMENT_CONDITIONS: Homo sapiens, THP-1; day 3 (72-hour culture); read-out: Human leukemia cell line GI50 (μM) THP1
Counter-ions that a name gives are not always drawn.
# maps each entry to its GI50
QUANTITY_MEASURED: GI50

INSERT INTO measurements (compound, observed_result) VALUES
  ('NC1CC1c1cccc(OCC[C@H](NC(=O)c2ccccc2)C(=O)NCc2ccccc2)c1 (stereo partly shown) [Comp. Ex. 2, hydrochloride, reference compound]', '> 50 µM'),
  ('O=C(N[C@@H](CCCCNC1CC1c1ccccc1)C(=O)NCc1ccccc1)c1ccc(-c2ccccc2)cc1 (stereo partly shown) [Example 8, Hydrochloride]', '5 to 6 µM'),
  ('O=C(N[C@@H](CCCCNC1CC1c1ccccc1)C(=O)NCc1cccc(C(F)(F)F)c1)c1ccc(-c2ccccc2)cc1 (stereo partly shown) [Example 19, Hydrochloride]', '5 to 10 µM'),
  ('O=C(N[C@@H](CCCCNC1CC1c1ccccc1)C(=O)NCc1cccc(Cl)c1)c1ccc(-c2ccccc2)cc1 (stereo partly shown) [Example 21, Hydrochloride]', '10 to 20 µM');

###

# maps each entry to its GI50
- System: HeLa cells
- PROCEDURE_SUMMARY: Cancer cell growth inhibition evaluation (MTT assay)
- Assay type: cell-based
- MEASUREMENT_CONDITIONS: Homo sapiens; 48 hours with compound, MTT; read-out: GI50 (μM) HeLa
Structures can show the parent of a compound that is named as a salt.
QUANTITY_MEASURED: GI50 (µM)

INSERT INTO assay_data (compound, quantity_measured, qualifier_symbol, observed_result) VALUES
  ('O=C(N[C@@H](CCCCNC1CC1c1ccccc1)C(=O)NCc1cccc(F)c1)c1ccc(-c2ccccc2)cc1 (stereo partly drawn) [Example 17, Hydrochloride]', 'GI50', '=', 10.9),
  ('O=C(N[C@@H](CCCCNC1CC1c1ccccc1)C(=O)NCc1ccc(F)cc1)c1ccc(-c2ccccc2)cc1 (stereo partly drawn) [Example 13, Hydrochloride]', 'GI50', '=', 4.4),
  ('Cc1ccc(CNC(=O)[C@H](CCCCNC2CC2c2ccccc2)NC(=O)c2ccc(-c3ccccc3)cc2)cc1 (stereo partly drawn) [Example 12, Hydrochloride]', 'GI50', '=', 4.4),
  ('CC(C)(C)c1ccc(C(=O)N[C@@H](CCCCNC2CC2c2ccccc2)C(=O)NCc2ccccc2)cc1 (stereo partly drawn) [Example 5, Hydrochloride]', 'GI50', '=', 12),
  ('O=C(N[C@@H](CCCCNC1CC1c1ccccc1)C(=O)NCc1ccccc1)c1ccc(C(F)(F)F)cc1 (stereo partly drawn) [Example 9, Hydrochloride]', 'GI50', '=', 13),
  ('NC1CC1c1ccccc1 (stereo not drawn) [Comp. Ex. 1, trans-2-Phenylcyclopropylamine, reference compound]', 'GI50', '>', 500);

###

- System: HeLa cells
- PROCEDURE_SUMMARY: Cancer cell growth inhibition evaluation (MTT assay)
- Type: cell-based
- MEASUREMENT_CONDITIONS: Homo sapiens; 48 hours with compound, MTT; read-out: GI50 (μM) HeLa
Where a name gives a salt, the structure may show the parent alone.
Decide using GI50 alone. Strictly below 5 µM: fulfilled. Equal to or above 5 µM: not fulfilled.

INSERT INTO results (molecule, category_label) VALUES
  ('Cc1cccc(CNC(=O)[C@H](CCCCNC2CC2c2ccccc2)NC(=O)c2ccc(-c3ccccc3)cc2)c1 (some centres unmarked) [Example 16, Hydrochloride]', 'fulfilled'),
  ('O=C(N[C@@H](CCCCNC1CC1c1ccccc1)C(=O)NCc1ccc(-c2ccccc2)cc1)c1ccc(-c2ccccc2)cc1 (some centres unmarked) [Example 14, Hydrochloride]', 'not fulfilled'),
  ('CC(C)(C)c1ccc(CNC(=O)[C@H](CCCCNC2CC2c2ccccc2)NC(=O)c2ccc(-c3ccccc3)cc2)cc1 (some centres unmarked)', 'fulfilled'),
  ('O=C(N[C@@H](CCCCNC1CC1c1ccccc1)C(=O)NCc1ccccc1)c1ccc(Cl)cc1 (some centres unmarked) [Example 6, Hydrochloride]', 'not fulfilled'),
  ('O=C(N[C@@H](CCCCNC1CC1c1ccccc1)C(=O)NCc1cccc(-c2ccccc2)c1)c1ccc(-c2ccccc2)cc1 (some centres unmarked) [Example 18, Hydrochloride]', 'not fulfilled');

###

- System: KG1a
- PROCEDURE_SUMMARY: Leukemia cell growth inhibition evaluation (WST-8)
- Assay type: cell-based
- MEASUREMENT_CONDITIONS: Homo sapiens, KG-1a; day 3 (72-hour culture); read-out: Human leukemia cell line GI50 (μM) KG1a
Structures can show the parent of a compound that is named as a salt.
# maps each entry to its GI50
QUANTITY_MEASURED: GI50

INSERT INTO assay_data (compound, system, observed_result) VALUES
  ('NC1CC1c1cccc(OCC[C@H](NC(=O)c2ccccc2)C(=O)NCc2ccccc2)c1 (stereo partly shown) [Comp. Ex. 2, hydrochloride, reference compound]', 'KG1a', '> 50 µM'),
  ('O=C(N[C@@H](CCCCNC1CC1c1ccccc1)C(=O)NCc1cccc(C(F)(F)F)c1)c1ccc(-c2ccccc2)cc1 (stereo partly shown) [Example 19, Hydrochloride]', 'KG1a', '5 to 10 µM'),
  ('O=C(N[C@@H](CCCCNC1CC1c1ccccc1)C(=O)NCc1ccccc1)c1ccc(-c2ccccc2)cc1 (stereo partly shown) [Example 8, Hydrochloride]', 'KG1a', '~6.3 µM'),
  ('O=C(N[C@@H](CCCCNC1CC1c1ccccc1)C(=O)NCc1cccc(Cl)c1)c1ccc(-c2ccccc2)cc1 (stereo partly shown) [Example 21, Hydrochloride]', 'KG1a', '10 to 20 µM');

###

# maps each entry to its IC50
- SYSTEM: monoamine oxidase A (MAO-A) (Homo sapiens)
- Construct: purchased Sigma-Aldrich
- Sequence (P21397 whole entry): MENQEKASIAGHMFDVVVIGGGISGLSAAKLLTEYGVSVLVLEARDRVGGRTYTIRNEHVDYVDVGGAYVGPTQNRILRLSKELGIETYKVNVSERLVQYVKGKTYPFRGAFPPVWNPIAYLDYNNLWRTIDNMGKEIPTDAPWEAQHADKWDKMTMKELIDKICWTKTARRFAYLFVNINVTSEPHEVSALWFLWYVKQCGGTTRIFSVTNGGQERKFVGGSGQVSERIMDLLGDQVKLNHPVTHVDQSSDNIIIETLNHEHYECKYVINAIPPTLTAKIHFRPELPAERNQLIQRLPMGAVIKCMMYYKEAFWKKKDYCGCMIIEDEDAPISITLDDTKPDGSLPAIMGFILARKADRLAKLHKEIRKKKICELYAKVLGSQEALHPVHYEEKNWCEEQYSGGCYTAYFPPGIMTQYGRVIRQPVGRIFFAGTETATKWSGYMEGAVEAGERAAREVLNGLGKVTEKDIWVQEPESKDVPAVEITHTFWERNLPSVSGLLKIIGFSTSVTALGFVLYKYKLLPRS
- PROCEDURE_SUMMARY: Monoamine oxidase inhibition test (MAO-Glo assay kit)
- Type: biochemical
- MEASUREMENT_CONDITIONS: room temperature, 1 hour
Structures can show the parent of a compound that is named as a salt.
QUANTITY_MEASURED: IC50

INSERT INTO assay_data (compound, quantity_measured, observed_result) VALUES
  ('O=C(N[C@@H](CCCCNC1CC1c1ccccc1)C(=O)NCc1cccc(C(F)(F)F)c1)c1ccc(-c2ccccc2)cc1 (stereo partly drawn) [Example 19, Hydrochloride]', 'IC50', '> 100 µM'),
  ('O=C(N[C@@H](CCCCNC1CC1c1ccccc1)C(=O)NCc1ccc(Cl)cc1)c1ccc(-c2ccccc2)cc1 (stereo partly drawn) [Example 20, Hydrochloride]', 'IC50', '> 100 µM'),
  ('O=C(N[C@@H](CCCCNC1CC1c1ccccc1)C(=O)NCc1cccc(Cl)c1)c1ccc(-c2ccccc2)cc1 (stereo partly drawn) [Example 21, Hydrochloride]', 'IC50', '> 100 µM');
